# target desc: Human IL-17A (Homo sapiens, UniProt Q16552)
# Sequence (Q16552 20-155 limits assumed): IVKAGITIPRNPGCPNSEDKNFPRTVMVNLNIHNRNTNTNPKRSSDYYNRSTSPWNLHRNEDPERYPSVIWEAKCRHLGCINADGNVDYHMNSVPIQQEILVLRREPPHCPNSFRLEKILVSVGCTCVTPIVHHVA
# test description: Inhibition of human IL-17A protein-induced GROα/CXCL1 production in HT-29 cells
# Type: cell-based
# Design: purchased R&D 317-ILB; host or cells: added exogenously to HT-29 cells
# cond: 30 ng/mL human IL-17A protein, 48 h, GROα in supernatant by ELISA kit, read-out: Inhibitory IC50 of compounds on HT-29 cell GROα/CXCL1
readout: IC50

Name the recorded IC50 for Cc1[nH]nc2c1-c1cc(F)c(NC(=O)[C@@H](NC(=O)c3ccnn3C(C)C)C(C3CC3)C3CC3)cc1C(=O)NC(C)C2 (single isomer, unassigned) [compound 187b] .
≤ 0.1 µM

Let us now turn to Cc1[nH]nc2c1-c1cc(F)c(NC(=O)[C@@H](NC(=O)c3ccnn3C(C)C)C(C3CC3)C3CC3)cc1CN(CC(F)(F)F)CC2 [compound 164]
≤ 0.1 µM

Also check Cc1[nH]nc2c1-c1cnc(NC(=O)[C@@H](NC(=O)c3ccnn3C(C)C3CC3)C(C3CC3)C3CC3)cc1COCC2 (single isomer, unassigned) [compound 188a]
0.1 to 0.5 µM

Record: Cc1[nH]nc2c1-c1ccc(NC(=O)[C@@H](NC(=O)c3ccnn3C3CC3)C(C3CC3)C3CC3)cc1COCC2 [compound 6]
0.1 to 0.5 µM

Queued: [2H]C([2H])([2H])C([2H])(n1nccc1C(=O)N[C@H](C(=O)Nc1cc2c(cc1F)-c1c(n[nH]c1C)CCOC2)C(C1CC1)C1CC1)C([2H])([2H])[2H] [compound 89]
≤ 0.1 µM

Can you check Cc1[nH]nc2c1-c1cnc(NC(=O)[C@@H](NC(=O)c3ccnn3C(C)CF)C(C3CC3)C3CC3)cc1COCC2 (single isomer, unassigned) [compound 189a] next?
≤ 0.1 µM

Also need Cc1[nH]nc2c1-c1cc(F)c(NC(=O)[C@@H](NC(=O)c3ccnn3CCOC(C)(C)C)C(C3CC3)C3CC3)cc1COCC2 [compound 113] , thanks.
0.1 to 0.5 µM

Cc1[nH]nc2c1-c1cnc(NC(=O)[C@@H](NC(=O)c3conc3C3CC3)C(C3CC3)C3CC3)cc1COCC2 [compound 241] , same question.
0.1 to 0.5 µM

Okay, and Cc1[nH]nc2c1-c1cc(F)c(NC(=O)[C@@H](NC(=O)c3ccnn3C(C)C)C(C3CC3)C3CC3)cc1CN(CC(F)F)C(=O)C2 [compound 144] ?
≤ 0.1 µM

Just for reference, patent US20260258050A1 is where these values come from.
